B1: Caulobacter ParB omega fusion; a variant is named by its letters at X, in order, B8GW30 (parent)
chain: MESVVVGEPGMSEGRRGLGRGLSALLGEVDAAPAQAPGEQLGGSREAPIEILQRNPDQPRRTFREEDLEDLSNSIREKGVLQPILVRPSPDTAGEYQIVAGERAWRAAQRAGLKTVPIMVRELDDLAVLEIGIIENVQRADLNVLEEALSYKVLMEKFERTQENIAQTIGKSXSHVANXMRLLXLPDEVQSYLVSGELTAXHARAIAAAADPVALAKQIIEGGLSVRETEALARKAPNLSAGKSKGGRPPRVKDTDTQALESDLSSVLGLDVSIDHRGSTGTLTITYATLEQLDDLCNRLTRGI

variants of: B1; experiment: one-hybrid fitness for binding parS DNA (scaled: cognate 1, non-cognate 0); higher = stronger binding; details: with parS DNA site
Over roughly 81,000 sequences, “one-hybrid fitness for binding parS DNA” has its median near -0.17; the highest 2% begin near 0.51. The full list was thinned out, with the highest values kept by preference.
measurement-name: one-hybrid fitness for binding parS DNA

PNHR    ≤ 0.2
CAHG    ≤ 0.2

Give the measured one-hybrid fitness for binding parS DNA of RCPS .
0.88

Give the measured one-hybrid fitness for binding parS DNA of RSFA .
0.558

Give the measured one-hybrid fitness for binding parS DNA of AKDP .
≤ 0.2

Give the measured one-hybrid fitness for binding parS DNA of RRNF .
≤ 0.2

Give the measured one-hybrid fitness for binding parS DNA of RNEW .
≤ 0.2
